tested on: HEK-293T; test: Multiplex assay against HEK293T; type: toxicity, cell-based; conditions: human, 48 h, 1 µM, compound concentration 1 uM, replicate 2
Parameter: Population Mitotic Cells (%)
Just the number please, in %, no unit attached.

Looking up Nc1nc(CC(=O)Nc2ccc(CCNC[C@H](O)c3ccccc3)cc2)cs1 [MIRABEGRON] , I found its Population Mitotic Cells (%) recorded as 71

// recorded Population Mitotic Cells (%) for O=C(O)CCC/C=C\CC1C(O)CC(O)C1/C=C/C(O)COc1cccc(Cl)c1 (stereo not given) [CLOPROSTENOL] : 71

Form field Population Mitotic Cells (%), entry Cc1ccc(OCC(O)C(C)NC(C)C)c2c1CCC2.Cl (stereo not given) : 73

Lookup result for CN(C)C(=O)Cn1cc(-c2ccc(-c3nnc4ccccn34)cc2)cn1 ; measured Population Mitotic Cells (%): 67

Population Mitotic Cells (%) in this record for CCc1nn2c(C)cc(C)nc2c1Cc1ccc(-c2nnc(C3CCNCC3)o2)cc1 : 67

* * *

test system: Fibroblast; test: Multiplex assay against human fibroblast; assay type: toxicity, cell-based; conditions: 48 h, 10 µM, compound concentration 10 uM, replicate 1
Non-standard residues stand in square brackets, D forms with d. Residues, ends and D or L forms follow the SMILES beside them.
Provide the recorded Population Fragmented Nuclei (%) for the entries that follow.
Express it in %; write the number only.

// field: Population Fragmented Nuclei (%); key: CCn1c(-c2nc3cc(C(=O)N4CCCC(N)C4)ccc3n2C)cc2ccccc21.Cl (configuration not stated) ; value = 19

# molecule CCCCCCNC(=O)Nc1ccc(S(=O)(=O)Nc2ccc(CCNC[C@H](O)COc3ccc(O)cc3)cc2)cc1 ; its Population Fragmented Nuclei (%) = 19

// sample Cc1sc2c(c1C)C(c1ccc(Cl)cc1)=N[C@H](CC(=O)OC(C)(C)C)c1nnc(C)n1-2 , its Population Fragmented Nuclei (%) was 21

Per the records, this molecule ( C[C@@H]1CC(=O)Nc2cccc(-c3ccc4c(c3)c(-c3cnn(C)c3)nn4C)c2N1 ) has Population Fragmented Nuclei (%) equal to 17

Looking up CN(C)C/C=C/C(=O)Nc1ccc(C(=O)N2CCCC(Nc3ncc(Cl)c(-c4c[nH]c5ccccc45)n3)C2)cc1 (configuration not stated) , I see its Population Fragmented Nuclei (%) listed as 28

For CC(C)C[C@@H]1NC(=O)[C@@H](C(C)C)NC(=O)[C@@H]2CCCN2C(=O)[C@@H](CC(=O)O)NC(=O)[C@@H](Cc2c[nH]c3ccccc23)NC1=O [BQ-123] (cyclo(L[dW][dD]P[dV])) the molecule record lists Population Fragmented Nuclei (%) as 26

Notebook: COc1c(Nc2ccc(S(C)(=O)=O)nc2C)ncnc1OC1CCN(C(=O)OC(C)C)CC1 , Population Fragmented Nuclei (%) read as 29

* * *

test system: HEK-293T; experiment: Multiplex assay against HEK293T; type: toxicity, cell-based; details: human, 12 h, 10 µM, compound concentration 10 uM, replicate 2
Non-standard residues stand in square brackets, D forms with d. Residues, ends and D or L forms follow the SMILES beside them.
Parameter: Population Fragmented Nuclei (%)
Enter your answer as a number in %; do not include the unit.

Item: CCCCCCNC(=O)Nc1ccc(S(=O)(=O)Nc2ccc(CCNC[C@H](O)COc3ccc(O)cc3)cc2)cc1 | Population Fragmented Nuclei (%): 8

The recorded Population Fragmented Nuclei (%) for COc1cc(OC2CCN(C(C)=O)CC2)ccc1C(=O)N1CCC(N2C(=O)OCc3ccccc32)CC1 is 4

Reported Population Fragmented Nuclei (%) of COc1cc2nc(N3CCN(C(=O)COc4c(OC)cccc4C(C)C)CC3)nc(N)c2cc1OC.Cl.Cl : 14

The reported Population Fragmented Nuclei (%) of the molecule Cc1cc(=O)n(C)c2cc(N3C(=O)CC[C@H](NS(=O)(=O)CC(C)C)[C@H]3c3ccc(Cl)cc3)ccc12 was 6

Measured Population Fragmented Nuclei (%), Cc1cc(-c2ccc3c(c2)CC[C@H]3N2CC3(CCN(C(=O)Cc4cn5cc(C)sc5n4)CC3)C2)ncn1 : 3

The measured Population Fragmented Nuclei (%) associated with Cc1ccc(OCC(O)C(C)NC(C)C)c2c1CCC2.Cl (stereo unspecified) reads 9

Query COCCn1c(C)c(C)s/c1=N\C(=O)C1C(C)(C)C1(C)C yields Population Fragmented Nuclei (%) of 8

Population Fragmented Nuclei (%) in this record for C=CCN1C[C@H](C(=O)N(CCCN(C)C)C(=O)NCC)C[C@@H]2c3cccc4[nH]cc(c34)C[C@H]21 : 6

// sample Nc1nc(-c2ccco2)c2cnn(Cc3ccccc3F)c2n1 , its Population Fragmented Nuclei (%) was 6

The molecule identified as N[C@](CC1c2ccccc2Oc2ccccc21)(C(=O)O)[C@H]1C[C@@H]1C(=O)O registered its Population Fragmented Nuclei (%) at 4

Memo: CC(C)C[C@@H]1NC(=O)[C@@H](C(C)C)NC(=O)[C@@H]2CCCN2C(=O)[C@@H](CC(=O)O)NC(=O)[C@@H](Cc2c[nH]c3ccccc23)NC1=O [BQ-123] (cyclo(L[dW][dD]P[dV])) , reported Population Fragmented Nuclei (%): 5

So for CN1C[C@H](C(=O)N[C@]2(C)O[C@@]3(O)[C@@H]4CCCN4C(=O)[C@H](Cc4ccccc4)N3C2=O)C[C@@H]2c3cccc4[nH]cc(c34)C[C@H]21.CS(=O)(=O)O [DIHYDROERGOTAMINE MESYLATE] , the logged Population Fragmented Nuclei (%) turned out to be 5

Population Fragmented Nuclei (%) recorded for this molecule, COc1cc(C(=O)N2CC[C@@H](O)[C@@H](N)C2)cc2nc(-c3cc4ccccc4n3CC3CC3)n(C)c12.Cl , is 4

The value of Population Fragmented Nuclei (%) measured for the molecule CCn1c(-c2nc3cc(C(=O)N4CCCC(N)C4)ccc3n2C)cc2ccccc21.Cl (stereo unspecified) turned out to be 6

Lab book: Population Fragmented Nuclei (%) of CSc1nc(NC2CCCC2)c([N+](=O)[O-])c(NC2CCCC2)n1 noted as 5

Recorded Population Fragmented Nuclei (%) (molecule Cl.Cl.OCCOCCN1CCN(C(c2ccccc2)c2ccc(Cl)cc2)CC1 (stereo unspecified) [HYDROXYZINE HYDROCHLORIDE] ): 6

// sample Cc1cc(O)c(-c2ccc([C@@H](C)CN(C)C)cc2)c2c1[nH]c(=O)c1sccc12 , its Population Fragmented Nuclei (%) was 7

For this molecule ( O=c1nc2[nH]c3ccccc3nc-2c(=O)[nH]1 ), measured Population Fragmented Nuclei (%) is 8

For reference, reported Population Fragmented Nuclei (%) for COC(c1ccccc1)(c1ccccc1)[C@H](Oc1nc(C)cc(C)n1)C(=O)O stands at 5

The molecule identified as CC(C)(O)C(=O)N1CCN(c2ccc(C(F)(F)F)c(C3=C(c4c[nH]c5ccccc45)C(=O)NC3=O)c2)CC1 registered its Population Fragmented Nuclei (%) at 3

Record summary for CCC(=O)OCC(=O)[C@@]1(OC(=O)CC)[C@@H](C)C[C@H]2[C@@H]3CCC4=CC(=O)C=C[C@]4(C)[C@@]3(Cl)[C@@H](O)C[C@@]21C [BECLOMETHASONE DIPROPIONATE] : reported Population Fragmented Nuclei (%) = 6
